Entries annotated with measured kon
ASSAY_TARGET: T1, hRET.mFc (human)
T1 construct: also called dimeric human RET
ASSAY: SPR Biacore T200, mAb capture, 25 C

BINDER	RESULT_UNITS	kon
H4H8066P (antibody, human IgG4, V domains shown, human IgG4 Fc (H4H prefix)) VH: EVQLVESGGGLVQPGGSLRLSCEASGFTFSRYAMTWVRQAPGKGLEWVSGISGSGGSTFYVDSLQGRFTLSRDNSKHTLFLQMNSLRAEDTAIYYCAKENTYGHFDYWGQGTLVTVSS VL: DIQLTQSPSFLSASVGDRVTITCWASQDISTYLAWYQQKPGKAPQVLIYAASSLQYGVPSRFSGSGSGTEFTLTITSLQPEDFATYYCQQLIGYPYIFGQGTKLEIK	M⁻¹ s⁻¹	207000
H4H8085P (antibody, human IgG4, V domains shown, human IgG4 Fc (H4H prefix)) VH: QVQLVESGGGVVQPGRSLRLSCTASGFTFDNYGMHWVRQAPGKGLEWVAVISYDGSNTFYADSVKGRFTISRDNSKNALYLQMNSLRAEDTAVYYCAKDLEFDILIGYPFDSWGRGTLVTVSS VL: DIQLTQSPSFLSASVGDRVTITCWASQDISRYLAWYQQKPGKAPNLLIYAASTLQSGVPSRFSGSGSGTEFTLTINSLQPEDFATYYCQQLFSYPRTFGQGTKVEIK	M⁻¹ s⁻¹	94000
H4H8084P (antibody, human IgG4, V domains shown, human IgG4 Fc (H4H prefix)) VH: QVQLVESGGGVVQPGRSLRLSCEASGFTFRNYGMHWVRQAPGKGLDWVSTIYYDGSDEYYSDSVKGRFTISRDNSKNTLYLQMNSLRAEDTAVYYCARDPPSFRYFDYWGQGTLVTVSS VL: DIQMTQSPSTLSASVGDRVTITCRASQSIRSWLTWYQQKPGKAPKVLIYKASTLERGVPSRFSGSGSGTEFTLTISSLQPEDFATYYCHQYSSYSYTFGQGTKLEIK	M⁻¹ s⁻¹	720000
